target: Solute carrier family 2, facilitated glucose transporter member 1 (Homo sapiens) (UniProt P11166); experiment: ST_JUDE_LEISH: Cytotoxicity at 2uM final concentration against transgenic Leishmania Mexicana promastigotes LmGLUT1 that are glucose transport deficient and complemented with the human glucose transporter GLUT1. Activity is measured by DNA content using SYBR green in vitro; format: functional
Sequence (P11166 whole entry): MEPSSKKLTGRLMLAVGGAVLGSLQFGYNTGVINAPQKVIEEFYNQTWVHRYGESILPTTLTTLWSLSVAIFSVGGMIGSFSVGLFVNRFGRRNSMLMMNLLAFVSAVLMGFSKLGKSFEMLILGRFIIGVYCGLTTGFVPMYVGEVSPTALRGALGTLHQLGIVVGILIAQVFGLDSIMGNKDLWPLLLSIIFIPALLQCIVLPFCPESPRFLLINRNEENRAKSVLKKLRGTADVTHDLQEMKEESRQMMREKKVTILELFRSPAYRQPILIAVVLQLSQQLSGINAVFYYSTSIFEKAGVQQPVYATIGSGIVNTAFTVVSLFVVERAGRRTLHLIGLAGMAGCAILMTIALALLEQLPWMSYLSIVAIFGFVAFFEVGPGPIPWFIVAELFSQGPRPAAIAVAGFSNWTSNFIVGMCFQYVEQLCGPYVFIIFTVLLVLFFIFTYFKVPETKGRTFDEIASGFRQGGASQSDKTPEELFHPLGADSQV
measurement name: inhibition (%)

INSERT INTO assay_data (compound, test_result) VALUES
  ('O=C(/C=C/c1ccc(Cl)c(Cl)c1)NC1CCC(CN2CCC(c3c[nH]c4ccccc34)C(O)C2)CC1 (stereo not given)', 5.68),
  ('C[C@H](Cc1ccc(OCCCCCCOc2ccccc2)cc1)NC[C@H](O)c1cccc(Cl)c1', -0.31),
  ('C=CC12CCN(CC1)C(C(O)c1ccnc3ccc(OC)cc13)C2 (stereo not given)', 0.26),
  ('COc1ccc(O)c(CN2CCN(c3cc(C)ccc3C)CC2)c1', 2.93),
  ('CC(Cc1ccc(OCCCCOc2ccccc2)cc1)NCCCN1CCOCC1 (stereo not given)', -1.24),
  ('Cn1nc(C(F)(F)F)cc1-c1ccc(C(=O)NC2CCC(CN3CCC(c4c[nH]c5ccccc45)CC3)CC2)s1 (stereo not given)', 6.48),
  ('CCc1nc(N)nc(N)c1-c1cccc(Cl)c1', 2.71),
  ('OC1(CNCc2ccccc2)CCN(CCc2c[nH]c3ccc(F)cc23)CC1', 4.9),
  ('O=C(/C=C/c1ccc(Cl)c(Cl)c1)NC1CCC(N2CCC(c3c[nH]c4ccccc34)CC2)CC1 (stereo not given)', 26),
  ('CC[C@H]1CN2CC[C@@H]1C[C@H]2[C@H](O)c1cc(N2CCCC(C)(C)C2)nc2ccc(OC)cc12', 0.42),
  ('Oc1ccc(Cl)cc1CN1CCC(CCOC(c2ccccc2)c2ccccc2)CC1', 9.61),
  ('COc1cccc(C(=O)C2CC2CN2CC=C(c3c[nH]c4cccc(Br)c34)CC2)c1 (stereo not given)', 1.59),
  ('CN(C(=O)OCc1ccccc1)C1CCC(CCN2CCC3(CC2)C(=O)NCN3c2cccc(C(F)(F)F)c2)(c2ccccc2)CC1 (stereo not given)', 2.48),
  ('CN1CC(c2ccc(Cl)c(Cl)c2)OC1=N (stereo not given)', -0.53),
  ('COc1cccc(CN2CCC(CCOC(c3ccccc3)c3ccc(Cl)cc3)CC2)c1O (stereo not given)', 26.2),
  ('Cc1cc(O)cc2c(C3CCN(CC4CCC(NC(=O)/C=C/c5ccccc5Cl)CC4)CC3)c[nH]c12 (stereo not given)', 4.47),
  ('COc1ccc2[nH]cc(C3=CCN(CC4CC4C(=O)c4ccccc4)CC3)c2n1 (stereo not given)', 12.6),
  ('COc1cc(NC(=O)c2nn(CCCN3CCC4(CC3)C(=O)NCN4c3ccccc3)cc2-c2ccc(Cl)c(Cl)c2)cc(OC)c1OC', -0.06),
  ('Cc1ccc(C(=O)Nc2ccnc(N(C)C3CCN(Cc4cccc(O)c4)CC3)c2)cn1', 3.48),
  ('Cc1nc2ccccc2n1C1CC2CCC(C1)N2Cc1nccn1-c1ccccc1 (stereo not given)', 0.86);
